Numbers sourced from patent US8410112B2.

Recorded measurements of pKi, one per entry
targetOrSystem: full-length ATR (Homo sapiens, UniProt Q13535)
Construct: in the presence of 5 nM full-length ATR
Sequence (Q13535 whole entry): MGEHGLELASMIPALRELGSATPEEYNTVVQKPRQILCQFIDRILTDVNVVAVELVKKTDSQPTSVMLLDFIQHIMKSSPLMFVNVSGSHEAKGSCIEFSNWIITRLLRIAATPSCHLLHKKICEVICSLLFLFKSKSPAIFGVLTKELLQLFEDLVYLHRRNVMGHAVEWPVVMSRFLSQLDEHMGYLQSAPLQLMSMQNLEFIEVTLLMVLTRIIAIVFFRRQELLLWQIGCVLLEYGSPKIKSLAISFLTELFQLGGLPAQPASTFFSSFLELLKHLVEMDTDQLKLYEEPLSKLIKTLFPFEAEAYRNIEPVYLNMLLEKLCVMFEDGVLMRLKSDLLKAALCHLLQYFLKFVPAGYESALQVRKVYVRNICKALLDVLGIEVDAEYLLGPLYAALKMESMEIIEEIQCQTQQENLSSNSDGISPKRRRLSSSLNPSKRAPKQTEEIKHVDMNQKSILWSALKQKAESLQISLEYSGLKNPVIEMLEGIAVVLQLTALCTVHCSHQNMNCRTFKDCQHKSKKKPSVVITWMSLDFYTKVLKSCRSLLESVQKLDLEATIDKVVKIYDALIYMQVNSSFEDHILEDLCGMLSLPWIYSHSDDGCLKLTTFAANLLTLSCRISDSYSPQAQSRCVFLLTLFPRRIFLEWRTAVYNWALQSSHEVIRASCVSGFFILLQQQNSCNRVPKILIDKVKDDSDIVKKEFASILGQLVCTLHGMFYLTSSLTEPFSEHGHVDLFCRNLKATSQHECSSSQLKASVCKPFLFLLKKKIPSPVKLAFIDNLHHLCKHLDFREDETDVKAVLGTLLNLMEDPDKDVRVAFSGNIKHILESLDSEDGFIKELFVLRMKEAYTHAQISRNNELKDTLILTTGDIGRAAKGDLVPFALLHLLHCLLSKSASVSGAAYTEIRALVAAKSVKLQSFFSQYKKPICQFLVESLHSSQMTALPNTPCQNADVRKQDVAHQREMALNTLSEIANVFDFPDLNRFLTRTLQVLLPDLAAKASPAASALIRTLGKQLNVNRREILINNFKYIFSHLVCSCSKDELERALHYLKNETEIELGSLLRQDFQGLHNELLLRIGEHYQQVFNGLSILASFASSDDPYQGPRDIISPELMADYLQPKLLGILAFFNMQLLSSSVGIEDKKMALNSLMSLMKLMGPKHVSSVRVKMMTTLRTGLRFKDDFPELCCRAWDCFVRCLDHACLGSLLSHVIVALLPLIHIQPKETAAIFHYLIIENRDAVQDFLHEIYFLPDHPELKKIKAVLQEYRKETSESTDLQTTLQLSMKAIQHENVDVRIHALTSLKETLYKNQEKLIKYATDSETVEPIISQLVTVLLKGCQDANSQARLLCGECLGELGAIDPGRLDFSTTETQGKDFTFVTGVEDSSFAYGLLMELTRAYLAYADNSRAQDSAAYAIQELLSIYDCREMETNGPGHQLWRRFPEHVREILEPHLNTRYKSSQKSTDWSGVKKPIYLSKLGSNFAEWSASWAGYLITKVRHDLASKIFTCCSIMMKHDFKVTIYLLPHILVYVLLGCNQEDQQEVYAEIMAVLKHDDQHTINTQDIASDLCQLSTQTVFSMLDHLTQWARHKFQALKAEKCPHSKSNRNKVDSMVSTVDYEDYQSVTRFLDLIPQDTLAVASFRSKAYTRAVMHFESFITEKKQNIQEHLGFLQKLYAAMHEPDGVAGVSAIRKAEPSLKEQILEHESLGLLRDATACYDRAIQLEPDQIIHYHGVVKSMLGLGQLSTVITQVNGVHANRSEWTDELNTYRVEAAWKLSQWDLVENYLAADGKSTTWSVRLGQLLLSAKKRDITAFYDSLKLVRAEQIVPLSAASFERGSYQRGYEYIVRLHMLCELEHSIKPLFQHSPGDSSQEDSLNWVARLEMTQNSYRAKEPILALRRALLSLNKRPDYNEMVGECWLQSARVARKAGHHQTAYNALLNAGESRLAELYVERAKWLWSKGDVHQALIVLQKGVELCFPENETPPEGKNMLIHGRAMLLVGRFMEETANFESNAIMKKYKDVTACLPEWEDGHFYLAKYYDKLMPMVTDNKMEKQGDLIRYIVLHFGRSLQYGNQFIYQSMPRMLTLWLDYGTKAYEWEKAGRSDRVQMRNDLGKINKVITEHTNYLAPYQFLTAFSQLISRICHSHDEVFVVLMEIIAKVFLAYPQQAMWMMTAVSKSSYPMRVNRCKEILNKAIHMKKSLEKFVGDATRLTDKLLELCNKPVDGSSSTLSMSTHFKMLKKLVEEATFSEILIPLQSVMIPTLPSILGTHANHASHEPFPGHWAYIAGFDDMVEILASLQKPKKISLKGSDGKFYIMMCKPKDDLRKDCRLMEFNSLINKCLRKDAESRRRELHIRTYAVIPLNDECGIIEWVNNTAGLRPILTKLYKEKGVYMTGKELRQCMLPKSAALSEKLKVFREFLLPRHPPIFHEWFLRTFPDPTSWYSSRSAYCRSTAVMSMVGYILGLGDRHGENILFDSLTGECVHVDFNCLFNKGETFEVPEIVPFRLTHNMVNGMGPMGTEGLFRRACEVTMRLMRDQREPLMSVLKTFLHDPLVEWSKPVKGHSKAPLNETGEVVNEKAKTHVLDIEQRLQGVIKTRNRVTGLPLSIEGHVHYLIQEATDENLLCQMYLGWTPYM
testDescription: ATR Inhibition Assay (radioactive-phosphate incorporation)
conditionDescription: Ki(app); 5 nM full-length ATR, 10 μM ATP, 800 μM target peptide, 25° C.
pKi: −log10 of the molar value.

Past entries and their recorded results:
Nc1ncc(N2CC[C@H](NS(=O)(=O)c3ccccc3)C2)nc1-c1nc2ccccc2[nH]1	6.00 to 7.00
CCS(=O)(=O)N1CCN(c2cnc(N)c(-c3nnc(-c4cccs4)o3)n2)CC1	6.00 to 7.00
Nc1ncc(C2=CCN(C(=O)C3CCC3)CC2)nc1-c1nnc(-c2ccccc2)o1	> 7.00
Nc1ncc(C2=CCN(C(=O)c3cccnc3)CC2)nc1-c1nc2ccccc2[nH]1	6.00 to 7.00
Nc1ncc(C2=CCN(S(=O)(=O)c3cccnc3)CC2)nc1-c1nnc(-c2ccccc2)o1	> 7.00
Cc1ccc2nc(-c3nc(N4CCC(=O)CC4)cnc3N)[nH]c2c1	5.00 to 6.00

In: Can you share its pKi? I mean this compound: Cc1ccc2nc(-c3nc(N4CCCC(N(C)C)C4)cnc3N)[nH]c2c1 (centres unmarked)
Out: 5.00 to 6.00

In: Can you share its pKi? I mean this compound: CCC(=O)N1CCN(c2cnc(N)c(-c3nnc(-c4ccc(CNC)cc4)o3)n2)C[C@@H]1C(C)C
Out: > 7.00
